experiment: Confirmation Concentration-Response Assay for Enhancers of SMN2 Splice Variant Expression; conditions: HEK293 SMN2-exon7-luciferase splicing reporter, luminescence, 30-36 h; series mostly up to 46.1 µM
Inconclusive results are not listed. The source made the active and inactive calls. Calls follow the shape of the dose curve; as a rule, active = well fitted activation curve with a large enough effect; inconclusive = small, poorly fitted or top-dose-only effect; inactive = no such curve, though single readings can be large or run the other way.
Please state which outcome applies, choosing from yes (1) for active, no (0) for inactive

Record excerpt, results attached:
[[record]]
chemical_structure = "CCCSc1nnc(Sc2nnnn2-c2ccccc2)s1"
assigned_class = "no (0)"

[[record]]
chemical_structure = "Clc1nc(NCc2cccs2)c2[nH]cnc2n1"
assigned_class = "no (0)"

[[record]]
chemical_structure = "Clc1nc(NCc2ccco2)c2[nH]cnc2n1"
assigned_class = "no (0)"

[[record]]
chemical_structure = "CC(/C=C/C(=O)NO)=C\\[C@@H](C)C(=O)c1ccc(N(C)C)cc1"
assigned_class = "yes (1)"

[[record]]
chemical_structure = "O=[N+]([O-])c1ccc(-c2nnc(-c3ccccc3)c(N3CCOCC3)n2)cc1"
assigned_class = "no (0)"


Q: Dear colleague, could you share the recorded outcome for Cn1cnc2c(NCc3ccco3)ncnc21 when you have a moment?
Result: no (0)
